So I've got a bunch of compounds here, and I need their inhibition values.
# testName: growth inhibitors of wild-type TIM10 yeast, confirmation, counter-screen for tim10-1 synthetic lethality project, single concentration, luminescence, S. cerevisiae (AID 463215);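 also: isogenic wild-type TIM10 control yeast grown in succinate dextrose medium; this counterscreen used the strain with wild-type TIM10; 0% = yeast with DMSO and 100% = medium wells lacking yeast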
# experimentalSetup: S. cerevisiae tim10 strain growth, BacTiter-Glo luminescence, 24 h; at 10 µM; stronger effect = higher value
The campaign covered roughly 4,600 compounds. About 2,900 (63%) were called active. The set was probably picked from earlier hits. These entries were drawn from the full list.

Just so you know, measured inhibition for C=CCNC(=O)c1ccc2c3n(nc2c1)-c1ccc(C)cc1CO3 came out at 45.5% (active)

Just so you know, measured inhibition for COc1ccc(C(=O)Nc2ccc(-n3nncc3C(C)(C)C)cc2)cc1 came out at 21.1% (inactive)

Just so you know, measured inhibition for O=C1NC(=O)C2C1C(c1ccc([N+](=O)[O-])cc1)=NN2Cc1ccccc1 (centres undefined) came out at 4.5% (inactive)

Just so you know, measured inhibition for COc1ccc(OC)c2sc(NC(=O)C3COc4ccccc4O3)nc12 (centres undefined) came out at 34.8% (active)

Just so you know, measured inhibition for COC(=O)c1c(NC(=O)COc2ccc(Cl)cc2Cl)sc2c1CC(C)(C)NC2(C)C came out at 45.8% (active)

Just so you know, measured inhibition for Cc1ccccc1OCC(=O)Nc1ccc(N2CCN(C(=O)C(C)C)CC2)c(Cl)c1 came out at 62.8% (active)

Just so you know, measured inhibition for Nc1cc(OC(=O)c2ccccc2Br)nn1S(=O)(=O)c1ccccc1 came out at 48% (active)

Just so you know, measured inhibition for O=[N+]([O-])c1ccc2c(c1)Nc1nc3ccccc3nc1N2 came out at 83.8% (active)

Just so you know, measured inhibition for COc1cc([N+](=O)[O-])ccc1NC(=O)COC(=O)CCOc1ccc(C)cc1 came out at 43.4% (active)

Just so you know, measured inhibition for Nc1ccccc1SC(C[N+](=O)[O-])c1ccccc1 (centres undefined) came out at 53.5% (active)

Just so you know, measured inhibition for O=C(Cc1ccccc1)NC(=S)Nc1ccc(N2CCCCC2)cc1 came out at 39.8% (active)

Just so you know, measured inhibition for CC[C@@H]1Cc2cc(O)ccc2C2=C1c1ccc(O)cc1C[C@H]2CC came out at 66.3% (active)

Just so you know, measured inhibition for Cn1c(-c2sccc2OCc2cccc(C(F)(F)F)c2)n[nH]c1=S came out at 34.8% (active)

Just so you know, measured inhibition for c1ccc(-c2cn3c(n2)CCc2ccc4cccnc4c2-3)cc1 came out at 37% (active)

Just so you know, measured inhibition for O=C(ON=C1CCN(S(=O)(=O)c2ccccc2)CC1)c1ccc(Cl)cc1 came out at 62.2% (active)

Just so you know, measured inhibition for O=C(Nc1cccc(S(=O)(=O)N2CCCC2)c1)c1cncc(Br)c1 came out at -2.05% (inactive)

Just so you know, measured inhibition for CSCCC(NS(=O)(=O)/C=C/c1ccccc1)C(=O)N1CCC(C)CC1 (centres undefined) came out at 2.25% (inactive)

Just so you know, measured inhibition for CC1(C)CCSC(/C=C/c2ccccc2)=N1 came out at 56.7% (active)

Just so you know, measured inhibition for C[C@@H](NC(=O)OC(C)(C)C)c1nnc(S(=O)(=O)Cc2ccccc2)o1 came out at 43.6% (active)

Just so you know, measured inhibition for CCOC(=O)c1ccc(N2C(=O)CC(N3CCC(C(=O)OCC)CC3)C2=O)cc1 (centres undefined) came out at 21.4% (inactive)

Just so you know, measured inhibition for O=c1oc(-c2ccccc2NS(=O)(=O)c2ccc(Cl)cc2)nc2ccccc12 came out at 41.5% (active)

Just so you know, measured inhibition for CCc1ccc2c(c1)C1(NN=C(c3ccccc3)S1)C(=O)N2 (centres undefined) came out at 43.3% (active)

Just so you know, measured inhibition for Cc1cc(N=Nc2ccc3ccccc3c2)ccc1O came out at 88.4% (active)

Just so you know, measured inhibition for COc1ccc(-c2cc(-c3ccc(N)cc3)nc(N)c2C#N)cc1OC came out at 33.8% (active)

Just so you know, measured inhibition for Cc1nn2c(c1-c1ccccc1)N=C(c1ccco1)CC2c1ccccc1 (centres undefined) came out at -19.4% (inactive)

Just so you know, measured inhibition for CC(C)NC(=O)/C(C#N)=C\c1ccc(N(C)C)c(Br)c1 came out at 46.6% (active)

Just so you know, measured inhibition for COc1cccc(CNc2nc(C(F)(F)F)nc3ccccc23)c1 came out at 27.1% (inactive)

Just so you know, measured inhibition for Fc1cccc(Cl)c1CSc1ccc(-c2ccco2)nn1 came out at 35.9% (active)

Just so you know, measured inhibition for c1ccc(-c2nccc(-c3ccc(-n4cnc5ccccc54)cc3)n2)nc1 came out at -3.75% (inactive)

Just so you know, measured inhibition for O=C(NCc1ccc2c(c1)OCO2)c1c(O)nc2sccn2c1=O came out at 27.8% (inactive)

Just so you know, measured inhibition for COc1ccc(-c2oc3ncn(Cc4ccco4)c(=N)c3c2-c2ccc(OC)cc2)cc1 came out at 38.8% (active)

Just so you know, measured inhibition for COc1ccc(NC(=S)NCC2CCN(c3ccc(OC)cc3)C2)cc1 (centres undefined) came out at -5.6% (inactive)

Just so you know, measured inhibition for COc1ccc(CNC(=O)/C(C#N)=C/c2cccc(OC)c2OC)cc1 came out at 80.8% (active)

Just so you know, measured inhibition for Cc1cc(C)c(S(=O)(=O)c2ccccc2)c(OC(=O)c2c(F)cccc2Cl)n1 came out at -5.1% (inactive)

Just so you know, measured inhibition for S=C(NCCCc1ccccc1)Nc1ccc(Br)cc1 came out at 31.7% (inactive)

Just so you know, measured inhibition for O=C(CC(O)(C(F)(F)F)C(F)(F)F)Nc1ccc(Cl)c(Cl)c1 came out at 92.4% (active)

Just so you know, measured inhibition for CC(C)(C)C(=O)c1cnc(Nc2ccccc2)s1 came out at 21.1% (inactive)

Just so you know, measured inhibition for Cc1[nH]c2ccccc2c1C(=O)COC(=O)c1c(-c2ccccc2)noc1C came out at 36.8% (active)

Just so you know, measured inhibition for COC(C/C=C/C(=O)[C@@H](C)OCc1ccccc1)OC came out at 39.4% (active)

###

# testName: growth inhibitors of wild-type TIM10 yeast, confirmation, counter-screen for tim10-1 synthetic lethality project, single concentration, luminescence, S. cerevisiae (AID 463215);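 also: isogenic wild-type TIM10 control yeast grown in succinate dextrose medium; this counterscreen used the strain with wild-type TIM10; 0% = yeast with DMSO and 100% = medium wells lacking yeast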
# experimentalSetup: S. cerevisiae tim10 strain growth, BacTiter-Glo luminescence, 24 h; at 10 µM; stronger effect = higher value
The campaign covered roughly 4,600 compounds. About 2,900 (63%) were called active. The set was probably picked from earlier hits. These entries were drawn from the full list.
So I've got a bunch of compounds here, and I need their inhibition values.
I only need the number, in %, no unit after it.

Just so you know, measured inhibition for COCCNC(=O)/C(C#N)=C/c1cccc(OCc2ccccc2)c1 came out at 69.5

Just so you know, measured inhibition for Cc1cccc(NC(=S)NCc2ccc3[nH]c4c(c3c2)CCCC4)c1 came out at 34.5

Just so you know, measured inhibition for Cc1ccc(C(=O)COc2cccc(NC(=O)c3ccco3)c2)cc1 came out at 53.1

Just so you know, measured inhibition for O=C(Nc1cccc(Cl)c1)OCc1ccccn1 came out at 41.4

Just so you know, measured inhibition for N/C(Cc1ccc([N+](=O)[O-])cc1)=N\OC(=O)C1CCCCC1 came out at 49.2

Just so you know, measured inhibition for O=c1[nH]cnc2c1c(-c1ccccc1)cn2-c1ccc(F)cc1 came out at -25.6

Just so you know, measured inhibition for Cc1nn(Cc2ccc(Cl)c(Cl)c2)c(C)c1NC(=O)c1cc(C2CC2)on1 came out at 33.2

###

# testName: growth inhibitors of wild-type TIM10 yeast, confirmation, counter-screen for tim10-1 synthetic lethality project, single concentration, luminescence, S. cerevisiae (AID 463215);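 also: isogenic wild-type TIM10 control yeast grown in succinate dextrose medium; this counterscreen used the strain with wild-type TIM10; 0% = yeast with DMSO and 100% = medium wells lacking yeast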
# experimentalSetup: S. cerevisiae tim10 strain growth, BacTiter-Glo luminescence, 24 h; at 10 µM; stronger effect = higher value
The whole screen tested about 4,600 compounds, of which about 2,900 (63%) were called active. So high a share suggests a set chosen from earlier hits. A selection follows.
attributeMeasured: inhibition (%)
I only need the number, in %, no unit after it.

Just so you know, measured inhibition for OC(CNCC1CCCO1)Cn1c2ccc(Br)cc2c2cc(Br)ccc21 (stereo unspecified) came out at 51.4

Just so you know, measured inhibition for O=S(=O)(NC1CCCCC1)c1ccc(F)c2ccccc12 came out at 29.4

Just so you know, measured inhibition for COc1ccc2c(c1)cc1n2CCN=C1NN came out at 51.4

Just so you know, measured inhibition for CN(C)CCN(C(=O)C1=COCCO1)c1nc2ccc(Cl)cc2s1 came out at 69.3

Just so you know, measured inhibition for C=C(C)COc1ccc(-c2n[nH]c(C)c2-c2ccccc2)c(O)c1 came out at 40.1

Just so you know, measured inhibition for O=C(Nc1ccc(NC(=O)c2cccs2)cn1)c1ccco1 came out at 32.2
